studySystem: T1, PUF4 RNA-binding domain (Saccharomyces cerevisiae, UniProt P25339 537-888)
T1 sequence: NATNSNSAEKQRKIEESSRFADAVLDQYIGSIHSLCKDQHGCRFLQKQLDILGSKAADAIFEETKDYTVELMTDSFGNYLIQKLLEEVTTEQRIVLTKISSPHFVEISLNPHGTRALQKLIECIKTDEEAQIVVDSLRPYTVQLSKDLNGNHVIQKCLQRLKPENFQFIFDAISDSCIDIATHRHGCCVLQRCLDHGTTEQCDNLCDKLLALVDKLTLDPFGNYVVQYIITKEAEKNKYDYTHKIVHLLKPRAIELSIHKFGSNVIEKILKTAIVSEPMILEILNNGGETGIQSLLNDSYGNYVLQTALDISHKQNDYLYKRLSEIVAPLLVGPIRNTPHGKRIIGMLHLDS
assay: Mg; RNA-MaP; 20 mM Na-HEPES pH 7.4, 30 mM KOAc, 0.75 mM MgCl2, 0.1% Tween-20, 5% glycerol, 0.1 mg/mL BSA, 2 mM DTT; 25 C; 0.0125-409.6 nM protein
settings: tags: N-His6-TEV cleaved; C-SNAP kept, Cy3B-labelled; label: tethered on chip by stalled RNA polymerase
parameter: log10(Kd) (log10 of the value in nM)
Friendly reminder: values = log10 of Kd, unit nM.

Known results for binders:
• UCUCUUUUUAUAUAUUAGCUCUCUU (ssRNA) [Id_ii_S1_P4E.3_K4.2_C4.2_[C-2T]_H4.2_A4.1_F4.1_T4.2_[T11C]] = 1.01
• Ic_S4_P4E.1_K4.1_C4.1_H4.1_A4.1_[A6C]_F4.1_[T8G]_[A9C]_T4.1 (ssRNA) RNA: UUUGACAACUGAUCGUUCUUUCUUGUAUCUGCUUCUUUCUCGAUCAGUUGUCUUU = 1.72
• UCUCUUUGUAAUUGCUCUCUU (ssRNA) [Ic_S1_P4E.1_K4.1_C4.1_H4.1_A4.1_[T5A]_[A6T]_F4.1_[T8G]_[A9C]_T4.1] = 2.83
• UCUCUUUGUGUAGUAUCUCUU (ssRNA) [Ib_S1_P4E.1_K4.1_C4.1_H4.1_[A4G]_A4.1_[T7G]_F4.1_T4.1] = 1.26

Now look at this entry.
Query: Consider the binder Id_ii_S4_P3E.3_K3.2_C3.2_[C-2A]_H3.2_A3.1_F3.1_T3.2_[A10C] (ssRNA) RNA: UUUGACAACUGAUCGUUCUUUCUAUUAUAUAUAUCUUCUUUCUCGAUCAGUUGUCUUU . State its measured log10(Kd).
Response: 2.13

Every entry's value here was drawn from paper PMC9352680.
